- experiment_summary: P. falciparum Dd2 growth inhibitors, primary screen, SYBR Green fluorescence, single dose replicates (AID 1159554)
- condition_summary: 72 h, at 10 µM
Hit rate of the full screen: of about 94,000 compounds, about 2,100 (2.2%) were called active. Rule as the data show it: active = activity change below about -80%; inconclusive = no clear call, values can overlap the other calls; inactive = above that. The full list was thinned out, with actives kept by preference.
Assign a class; possible classes are active, inactive

Some entries whose results are on file:
{"columns": ["smiles_notation", "class_label"],
 "data": [
  ["Cc1ccc(S(=O)(=O)Nc2ccc3c(c2)C(=O)N([C@@H](C)CO)C[C@@H](C)[C@H](CN(C)Cc2ccc(Cl)c(Cl)c2)OCCCC[C@@H](C)O3)cc1", "inactive"],
  ["CCS(=O)(=O)N1CC2(CN(Cc3cc(F)ccc3F)[C@@H](CO)c3c2c2ccc(OC)cc2n3C)C1", "inactive"],
  ["CC(C)NC(=O)N(C)C[C@H]1OCCCC[C@@H](C)Oc2ccc(NC(=O)C3CCCCC3)cc2C(=O)N([C@H](C)CO)C[C@H]1C", "inactive"],
  ["O=C(Nc1ccc(F)cc1)N[C@H]1C=C[C@@H](CC(=O)N2CCOCC2)O[C@H]1CO", "inactive"]
]}

Ask | Write down the call the test reported for this molecule. Item: O=C1CN(S(=O)(=O)c2ccccc2)C[C@H]2[C@H](c3ccc(C4=CCCC4)cc3)[C@@H](CO)N12
Reply | inactive

Ask | Write down the call the test reported for this molecule. Item: Cc1ccccc1S(=O)(=O)N1CC(=O)N2[C@H](CO)[C@@H](c3ccc(C#Cc4ccccc4)cc3)[C@H]2C1
Reply | inactive

====

- experiment_summary: P. falciparum Dd2 growth inhibitors, primary screen, SYBR Green fluorescence, single dose replicates (AID 1159554)
- condition_summary: 72 h, at 10 µM, active compounds read low
Out of some 94,000 compounds screened, about 2,100 (2.2%) were called active. Shown is part of a subset that was picked to be rich in actives.
# label = Criterion met if activity change < -30% else Criterion not met

Some entries whose results are on file:
{"columns": ["smiles_notation", "class_label"],
 "data": [
  ["Cc1ccc(S(=O)(=O)N(C)C[C@@H]2OCCCC[C@@H](C)Oc3ccc(NC(=O)Nc4ccc(C(F)(F)F)cc4)cc3C(=O)N([C@@H](C)CO)C[C@@H]2C)cc1", "Criterion met"],
  ["CN1C(=O)c2cc(NC(=O)C3CCOCC3)ccc2OC[C@@H]2O[C@@H](CC(=O)NCC3CC3)CC[C@@H]21", "Criterion not met"],
  ["O=C(NCCN1CCCC1)[C@@H]1N[C@@H]2c3ccc(-c4ccccc4)c(=O)n3C[C@@H]2[C@H]1CO", "Criterion not met"]
]}

Ask | Is it true that activity change reported for CCCNC(=O)C[C@@H]1CC[C@H]2[C@@H](COc3ccc(NC(=O)C4CCCC4)cc3C(=O)N2C)O1 is less than -30%?
Reply | Criterion not met

Ask | Is it true that activity change reported for COCC(=O)Nc1ccc2c(c1)OC[C@H](C)N(C(=O)c1cnccn1)C[C@@H](C)[C@@H](OC)CN(C)C2=O is less than -30%?
Reply | Criterion met

Ask | Is it true that activity change reported for COc1ccc(NC(=O)Nc2ccc3c(c2)C(=O)N([C@H](C)CO)C[C@@H](C)[C@H](CN(C)C(=O)Nc2ccc(C(F)(F)F)cc2)OCCCC[C@@H](C)O3)cc1 is less than -30%?
Reply | Criterion met

Ask | Is it true that activity change reported for COC(=O)C[C@H]1CC[C@H](NC(=O)Nc2ccc(C(F)(F)F)cc2)[C@H](CO)O1 is less than -30%?
Reply | Criterion not met

====

Collected activity change values appear next to each entry.
- experiment_summary: P. falciparum Dd2 growth inhibitors, primary screen, SYBR Green fluorescence, single dose replicates (AID 1159554)
- condition_summary: 72 h, at 10 µM, active compounds read low
Out of some 94,000 compounds screened, about 2,100 (2.2%) were called active. This excerpt belongs to a sample that is enriched for actives.
Respond numerically; units are % and should not be typed.

{"columns": ["smiles_notation", "assay_value"],
 "data": [
  ["C[C@@H]1CCCCO[C@@H](CN(C)Cc2ccc3c(c2)OCO3)[C@@H](C)CN([C@@H](C)CO)C(=O)c2cc(NC(=O)Nc3ccccc3)ccc2O1", -36.8],
  ["C[C@@H]1CCCCO[C@@H](CN(C)Cc2ccc(C(F)(F)F)cc2)[C@@H](C)CN([C@H](C)CO)C(=O)c2cc(NC(=O)Nc3ccccc3)ccc2O1", 74.5],
  ["C[C@@H]1CCCCO[C@@H](CN(C)C(=O)Nc2ccc(F)cc2)[C@H](C)CN([C@H](C)CO)C(=O)c2cc(NC(=O)Nc3cccc4ccccc34)ccc2O1", -24.3]
]}

Let us move to another entry and its activity change.
Ask | Can you share its activity change? I mean this molecule: C[C@@H]1CCCCO[C@H](CN(C)C(=O)Nc2cccc3ccccc23)[C@@H](C)CN([C@@H](C)CO)C(=O)c2cc(NC(=O)Nc3ccc(F)cc3)ccc2O1
Reply | -88.2

====

- experiment_summary: P. falciparum Dd2 growth inhibitors, primary screen, SYBR Green fluorescence, single dose replicates (AID 1159554)
- condition_summary: 72 h, at 10 µM, active compounds read low
In all, about 94,000 compounds went through this assay and about 2,100 (2.2%) were called active. What follows is part of a selection rich in actives, with near analogues and random picks from the rest.
Collected activity change values appear next to each entry.
Respond numerically; units are % and should not be typed.

Some compounds with known activity change results, for comparison:
{"columns": ["smiles_notation", "output_unit", "activity change"],
 "data": [
  ["Cc1ccc(S(=O)(=O)Nc2ccc3c(c2)CC(=O)N([C@H](C)CO)C[C@@H](C)[C@H](CN(C)Cc2ccc(C(F)(F)F)cc2)O3)cc1", "%", 32],
  ["C[C@@H]1CN([C@H](C)CO)C(=O)Cc2cc(NC(=O)Nc3ccc4c(c3)OCO4)ccc2O[C@@H]1CN(C)Cc1ccc(C(=O)Nc2ccccc2N)cc1", "%", -76.5]
]}

Ask | Can you share its activity change? I mean this compound: O=C(c1ccc(F)cc1)N1CC(=O)N2[C@H](C1)[C@@H](c1ccc(C#CC3CC3)cc1)[C@@H]2CO
Reply | -8.1

Ask | Can you share its activity change? I mean this compound: Cc1ccc(S(=O)(=O)N(C)C[C@@H]2Oc3cc(C4=CCCC4)ccc3S(=O)(=O)N([C@@H](C)CO)C[C@@H]2C)cc1
Reply | -71.1

====

Collected activity change values appear next to each entry.
- experiment_summary: P. falciparum Dd2 growth inhibitors, primary screen, SYBR Green fluorescence, single dose replicates (AID 1159554)
- condition_summary: 72 h, at 10 µM, active compounds read low
The whole screen tested about 94,000 compounds, of which about 2,100 (2.2%) were called active. The entries come from a sample that favours actives as a whole.
Respond numerically; units are % and should not be typed.

{"columns": ["smiles_notation", "activity change, %"],
 "data": [
  ["Cc1ccc(S(=O)(=O)N(C)C[C@H]2OCCCC[C@H](C)Oc3ccc(NS(=O)(=O)c4c(C)noc4C)cc3C(=O)N([C@H](C)CO)C[C@@H]2C)cc1", -35.7],
  ["Cc1noc(C)c1S(=O)(=O)Nc1ccc2c(c1)C(=O)N([C@@H](C)CO)C[C@@H](C)[C@H](CN(C)C(=O)Nc1cccc3ccccc13)OCCCC[C@H](C)O2", -39]
]}

Let us move to another entry and its activity change.
Ask | Can you share its activity change? I mean this molecule: COc1ccc(S(=O)(=O)Nc2ccc3c(c2)C(=O)N([C@@H](C)CO)C[C@H](C)[C@@H](CN(C)C(=O)Nc2ccc4c(c2)OCO4)OCCCC[C@@H](C)O3)cc1
Reply | -81.3

====

- experiment_summary: P. falciparum Dd2 growth inhibitors, primary screen, SYBR Green fluorescence, single dose replicates (AID 1159554)
- condition_summary: 72 h, at 10 µM, active compounds read low
The whole screen tested about 94,000 compounds, of which about 2,100 (2.2%) were called active. The full list was thinned out, with actives kept by preference.
readout: activity change (%)
Respond numerically; units are % and should not be typed.

Some compounds with known activity change results, for comparison:
{"columns": ["smiles_notation", "activity change / %"],
 "data": [
  ["COCC(=O)Nc1ccc2c(c1)OC[C@H](C)N(Cc1ccccc1)C[C@H](C)[C@@H](OC)CN(C)C2=O", -12.2],
  ["COc1ccc(NC(=O)N(C)C[C@@H]2Oc3ncc(-c4ccc(C#N)cc4)cc3C(=O)N([C@@H](C)CO)C[C@H]2C)cc1", 34.7],
  ["O=C(c1ccc(F)cc1)N1CC2(C1)[C@H](c1ccccc1)[C@@H](CO)N2Cc1ccccn1", -24.5],
  ["COc1ccccc1S(=O)(=O)N[C@@H]1CC[C@@H](CCNC(=O)C2CCCCC2)O[C@@H]1CO", -1.07],
  ["C[C@@H]1CN([C@H](C)CO)C(=O)c2cc(Br)cnc2O[C@@H]1CN(C)Cc1cncnc1", 25.3],
  ["CCCc1cn(CC[C@H]2CC[C@@H](NC(=O)C3CCOCC3)[C@@H](CO)O2)nn1", -3.07],
  ["CCS(=O)(=O)Nc1ccc2c(c1)C(=O)N(C)[C@@H]1CC[C@H](CC(=O)N3CCCCC3)O[C@@H]1CO2", 6.13]
]}

Let us move to another entry and its activity change.
Ask | Can you share its activity change? I mean this compound: CN1c2ccc(Br)cc2[C@@H]2[C@@H](CCN2C(=O)C2CCCCC2)[C@H]1CO
Reply | 11.1
